- TESTED SYSTEM: Mu-type opioid receptor (Homo sapiens, UniProt P35372)
- Sequence (P35372 whole entry): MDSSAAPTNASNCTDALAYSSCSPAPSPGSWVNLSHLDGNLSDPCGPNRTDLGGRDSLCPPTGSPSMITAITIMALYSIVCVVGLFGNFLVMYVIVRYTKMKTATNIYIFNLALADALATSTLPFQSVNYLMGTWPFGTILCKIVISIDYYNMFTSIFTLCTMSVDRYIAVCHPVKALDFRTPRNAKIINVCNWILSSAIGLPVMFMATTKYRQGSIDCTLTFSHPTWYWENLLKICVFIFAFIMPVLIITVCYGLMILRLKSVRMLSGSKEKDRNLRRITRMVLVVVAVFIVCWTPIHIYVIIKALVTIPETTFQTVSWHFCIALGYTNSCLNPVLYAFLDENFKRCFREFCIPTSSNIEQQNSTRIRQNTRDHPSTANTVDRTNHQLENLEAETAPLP
- ASSAY PROCEDURE: biochemical
- Description: In vitro binding affinity against cloned human Opioid receptor mu 1 expressed in HEK 293S cells
PROPERTY NAME: pIC50
One number for each entry, as −log10 of the molar value.

> print(dat)
                            molecule.smiles  property.name  measured.result
1  c1ccc2c(c1)C[C@H]1c3ccccc3[C@H]2[C@@H]2CCCN12          pIC50             7.23

Lab note: each compound below needs its pIC50 filled in.
1. COc1ccc2c(c1)[C@H]1c3cc(OC)ccc3[C@H](C2)N2CCC[C@@H]12
2. CN1[C@@H]2Cc3ccccc3[C@@H](c3ccccc32)[C@@H]1CCCO
3. CC(=O)Oc1ccc2c(c1)[C@H]1c3cc(OC(C)=O)ccc3[C@H](C2)N2CCC[C@@H]12

Solution:
1: 6.80; 2: 5.94; 3: 6.66

====

Can you tell me IC50 for the items I'm about to list?
- TESTED SYSTEM: Delta-type opioid receptor (Homo sapiens)
- ASSAY PROCEDURE: In vitro binding affinity against cloned human Opioid receptor delta 1 expressed in HEK 293S cells
Numbers only, in nM.

> print(dat)
                            molecule.smiles  measured.result
1  C[C@@H]1[C@H]2c3cc(N4CCN(C)CC4)ccc3C[C@@H](c3ccc(N4CCN(C)CC4)cc32)N1C             2500

Now for another entry.
Problem: # return recorded IC50 for input C[C@@H]1[C@H]2c3cc(NCc4ccccc4)ccc3C[C@@H](c3ccc(NCc4ccccc4)cc32)N1CC1CC1
Solution: 49

====

Can you tell me pIC50 for the items I'm about to list?
- TESTED SYSTEM: Delta-type opioid receptor (Homo sapiens)
- ASSAY PROCEDURE: In vitro binding affinity against cloned human Opioid receptor delta 1 expressed in HEK 293S cells
Numbers only, as −log10 of the molar value.

Some compounds with recorded pIC50:
> print(dat)
                            molecule.smiles                             tested.system  measured.result
1  C[C@@H]1[C@H]2c3cc(Nc4ccccc4)ccc3C[C@@H](c3ccc(Nc4ccccc4)cc32)N1CC1CC1  Delta-type opioid receptor (Homo sapiens)             6.05
2  C[C@@H]1[C@H]2c3cc(Br)ccc3C[C@@H](c3ccc(Br)cc32)N1C  Delta-type opioid receptor (Homo sapiens)             5.05
3  CC(=O)Oc1ccc2c(c1)[C@H]1c3cc(OC(C)=O)ccc3[C@H](C2)N(CC2CC2)[C@@H]1C  Delta-type opioid receptor (Homo sapiens)             5.48

Problem: Report its pIC50 with Delta-type opioid receptor (Homo sapiens) as the test system: CN1[C@@H]2Cc3ccccc3[C@@H](c3ccccc32)[C@@H]1Cc1ccccc1
Solution: 5.46

====

Can you tell me IC50 for the items I'm about to list?
- TESTED SYSTEM: Delta-type opioid receptor (Homo sapiens, UniProt P41143)
- Sequence (P41143 whole entry): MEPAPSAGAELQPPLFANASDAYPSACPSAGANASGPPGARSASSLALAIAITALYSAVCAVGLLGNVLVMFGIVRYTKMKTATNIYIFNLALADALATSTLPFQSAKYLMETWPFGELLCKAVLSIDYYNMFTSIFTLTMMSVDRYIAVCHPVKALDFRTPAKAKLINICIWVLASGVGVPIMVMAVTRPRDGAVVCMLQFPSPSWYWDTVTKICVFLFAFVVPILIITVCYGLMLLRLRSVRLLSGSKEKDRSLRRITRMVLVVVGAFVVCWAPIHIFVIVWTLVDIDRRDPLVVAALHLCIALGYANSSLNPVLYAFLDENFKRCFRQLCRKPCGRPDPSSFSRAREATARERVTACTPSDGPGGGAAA
- ASSAY PROCEDURE: In vitro binding affinity against cloned human Opioid receptor delta 1 expressed in HEK 293S cells
Numbers only, in µM.

> print(dat)
                            molecule.smiles  measured.result
1  COc1ccc2c(c1)[C@H]1c3cc(OC)ccc3[C@H](C2)N2CCC[C@@H]12             4.04
2  C[C@@H]1[C@H]2c3cc(N4CCN(C)CC4)ccc3C[C@@H](c3ccc(N4CCN(C)CC4)cc32)N1CC1CC1             2.04
3  C[C@@H]1[C@H]2c3cc(N4CCOCC4)ccc3C[C@@H](c3ccc(N4CCOCC4)cc32)N1C              7.5
4  CC(=O)Oc1ccc2c(c1)[C@H]1c3cc(OC(C)=O)ccc3[C@H](C2)N2CCC[C@@H]12              2.9
5  C[C@@H]1[C@H]2c3cc(O)ccc3C[C@@H](c3ccc(O)cc32)N1CC1CC1             0.46
6  Brc1ccc2c(c1)[C@H]1c3cc(Br)ccc3[C@H](C2)N2CCC[C@@H]12             5.02

Lab note: each compound below needs its IC50 filled in.
1. CN1CC[C@]23CCCC[C@H]2[C@H]1Cc1ccc(O)cc13
2. COc1ccc2c(c1)[C@H]1c3cc(OC)ccc3[C@H](C2)N(CC2CC2)[C@@H]1C

Solution:
0.0051
6.63

Problem: # return recorded IC50 for input Brc1ccc(CNc2ccc3c(c2)[C@H]2c4cc(NCc5ccc(Br)cc5)ccc4[C@H](C3)N3CCC[C@@H]23)cc1
Solution: 5.3
